Assay: rapamycin-like changes in RPL19A-GFP expression – cell-based, S. cerevisiae, multiplex flow cytometry, primary screen (AID 1862);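 further: lower values mimic rapamycin by blocking the RPL19A rise seen in DMSO cells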
Settings: S. cerevisiae RPL19A-GFP strain, flow cytometry fluorescence, 3 h; at 10 µM; stronger effect = lower value
Records with an inconclusive call do not appear.
readout.label: percent of DMSO control GFP (%)
Entry rule: numbers only, all in %.

[
  {
    "compound": "Cn1cc(C2N3CC4(C)CN2CC(C)(C3)C4=O)c2ccccc21 (stereo not given)",
    "units.text": "%",
    "recorded.result": 102
  },
  {
    "compound": "CCc1nc2ccccc2c(NC(=O)CN2CC(C)CC(C)C2)c1C (stereo not given)",
    "units.text": "%",
    "recorded.result": 99
  },
  {
    "compound": "CCOC(=O)c1ncn2c1CN(C)C(=O)c1cc(F)ccc1-2",
    "units.text": "%",
    "recorded.result": 101
  },
  {
    "compound": "CC(CCc1ccccc1)NC(=O)/C=C/c1ccccc1 (stereo not given)",
    "units.text": "%",
    "recorded.result": 92.6
  },
  {
    "compound": "c1ccc2c(c1)CCOC2CNCCCN1CCCCC1 (stereo not given)",
    "units.text": "%",
    "recorded.result": 92
  },
  {
    "compound": "COc1ccccc1/C=C/C(=O)OCCN1CCOCC1",
    "units.text": "%",
    "recorded.result": 99.8
  },
  {
    "compound": "Cc1ccc(S(=O)(=O)N[C@@H](Cc2ccccc2)C(=O)CCl)cc1",
    "units.text": "%",
    "recorded.result": 99.2
  },
  {
    "compound": "COc1cc(CNc2nnnn2C)ccc1OCc1ccc(F)cc1Cl",
    "units.text": "%",
    "recorded.result": 102
  },
  {
    "compound": "Cc1ccc(OCc2nc(-c3cccnc3)no2)cc1C",
    "units.text": "%",
    "recorded.result": 92
  },
  {
    "compound": "O=C(CC(NC(=O)OCc1ccccc1)C(=O)O)OCc1ccccc1 (stereo not given)",
    "units.text": "%",
    "recorded.result": 106
  }
]

Summary for this compound, CCCn1c(=O)c2[nH]c(C3CCCC3)nc2n(CCC)c1=O : percent of DMSO control GFP is 92.6

Summary for this compound, Cc1ccc2c(c1)C1CN(C)CCC1N2S(=O)(=O)c1ccc(Oc2ccc([N+](=O)[O-])cc2)cc1 (stereo not given) : percent of DMSO control GFP is 104

Summary for this compound, CCN(CCCCCN(C)C)Cc1cc2ccccc2o1 : percent of DMSO control GFP is 101

Summary for this compound, COc1ccc(-n2cc(CNCc3cccnc3)c(-c3cccc(F)c3)n2)cc1 : percent of DMSO control GFP is 105

Summary for this compound, COc1cc(C(=O)Nc2cccc(-c3nnc(-c4ccco4)o3)c2)ccc1OC(C)=O : percent of DMSO control GFP is 103

Summary for this compound, COc1ccc2nc(C)cc(Nc3ccccc3O)c2c1 : percent of DMSO control GFP is 94.2

Summary for this compound, CC1(C)Cc2ccccc2-c2n[nH]c(=S)n21 : percent of DMSO control GFP is 99.1

---

Target: Cell division control protein 42 homolog (Homo sapiens) (UniProt P60953)
Sequence (P60953 whole entry, looked up): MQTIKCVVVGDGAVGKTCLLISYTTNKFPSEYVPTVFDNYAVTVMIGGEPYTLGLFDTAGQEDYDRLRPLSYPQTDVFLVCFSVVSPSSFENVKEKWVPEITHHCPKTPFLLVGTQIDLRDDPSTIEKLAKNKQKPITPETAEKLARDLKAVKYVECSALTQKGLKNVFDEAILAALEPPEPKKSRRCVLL
Assay: inhibition of fluorescent GTP binding to wildtype Cdc42 – biochemical, multiplex bead flow cytometry, Bodipy-FL-GTP, dose response (AID 1334)
Settings: bead-based flow cytometry, Bodipy-FL-GTP binding to GST-Cdc42; at 100 µM (top of the series) unless noted
Potency and affinity values are given separately.
readout.label: fluorescence, percent of control (lower = inhibition) (%)
Entry rule: numbers only, all in %.

// worked examples, fluorescence, percent of control (lower = inhibition) included
[
  {
    "chemical.structure": "O=C1c2ccccc2-n2c1nc1ccccc1c2=O",
    "recorded.result": 35.1
  },
  {
    "chemical.structure": "Cc1ccc(Sc2nnc(-c3ccccc3)cc2C#N)cc1",
    "recorded.result": 104
  },
  {
    "chemical.structure": "O=C(O)c1ccc(COc2cccc(Cl)c2)o1",
    "recorded.result": 60.1
  }
]

Summary for this compound, Cc1cc2ccccn2c1C(=O)c1cccc([N+](=O)[O-])c1 : fluorescence, percent of control (lower = inhibition) is 34

Summary for this compound, COC(=O)c1c(N2C(=O)[C@H]3[C@@H](C2=O)[C@]2(C(=O)Nc4c(C)cc(C)cc42)N2CCC[C@@H]32)sc(C)c1C : fluorescence, percent of control (lower = inhibition) is 45.1

Summary for this compound, Cc1ccccc1NC(=O)CN1C(=O)S/C(=C\c2ccc(-c3cc(C(=O)O)ccc3C)o2)C1=O : fluorescence, percent of control (lower = inhibition) is 30.5

Summary for this compound, CCOc1nnc(C)c2c(C)n(-c3cccc(Cl)c3)nc12 : fluorescence, percent of control (lower = inhibition) is 155

Summary for this compound, O=C(O)c1cccnc1SCc1cccc(Cl)c1 : fluorescence, percent of control (lower = inhibition) is 102

Summary for this compound, COc1ccccc1OCCn1cc(C(=O)O)c2cccc(C)c21 : fluorescence, percent of control (lower = inhibition) is 50.6

Summary for this compound, CCc1nnc(NC(=O)CCC(=O)N2CCN(c3ccccn3)CC2)s1 : fluorescence, percent of control (lower = inhibition) is 94

Summary for this compound, O=C(O)c1ccc(COc2ccc(F)cc2)o1 : fluorescence, percent of control (lower = inhibition) is 61.2

---

Overview of recorded aptamer binding inhibition for various compounds
Biological target: Beta-adrenergic receptor kinase 1 (Homo sapiens)
Experiment: GRK2 binders displacing RNA aptamer, biochemical, validation, human GRK2, bead flow cytometry (AID 488806)
Details: bead-bound GRK2, FAM-aptamer displacement, at 10 µM, stronger effect = higher value
The source made the active and inactive calls.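 The calls were made as follows: active = aptamer binding inhibition above 30%, about 3 SD of noise from non-fluorescent compounds; inactive = inhibition at or below 30%.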

// worked examples, aptamer binding inhibition included
[
  {
    "compound": "COc1ccc(CNC(=O)C2CCCN2C)cc1OC (stereo not drawn)",
    "aptamer binding inhibition": "-2% (inactive)"
  },
  {
    "compound": "O=C(Cc1ccccc1)NNC(=O)Cc1ccccc1",
    "aptamer binding inhibition": "-1% (inactive)"
  },
  {
    "compound": "NS(=O)(=O)c1cc2c(cc1C(F)(F)F)NC(Cc1ccccc1)NS2(=O)=O (stereo not drawn)",
    "aptamer binding inhibition": "7% (inactive)"
  }
]

Summary for this compound, COc1c(O)ccc2c1CN1CCc3cc4c(cc3C1C2)OCO4 (stereo not drawn) : aptamer binding inhibition is 1% (inactive)

Summary for this compound, C#C[C@]1(O)CC[C@H]2[C@@H]3CCc4cc(O)ccc4[C@H]3CC[C@@]21C : aptamer binding inhibition is -5% (inactive)

Summary for this compound, O=C(CCc1ccccc1)Nc1ccccc1C(F)(F)F : aptamer binding inhibition is 1% (inactive)

Summary for this compound, O=c1[nH]cnc2[nH]ncc12 : aptamer binding inhibition is 0% (inactive)

Summary for this compound, COc1ccc(NC(=O)C2CCCN2C(=O)OC(C)(C)C)cc1 (stereo not drawn) : aptamer binding inhibition is 0% (inactive)

Summary for this compound, CC(C)C[C@H]1C(=O)N2CCC[C@H]2[C@]2(O)O[C@](NC(=O)[C@@H]3C=C4c5cccc6[nH]c(Br)c(c56)CC4N(C)C3)(C(C)C)C(=O)N12 (stereo partly drawn) : aptamer binding inhibition is 0% (inactive)

Summary for this compound, CCOC(=O)N1c2ccccc2C=CC1OCC (stereo not drawn) : aptamer binding inhibition is 3% (inactive)

---

Molecular target: GTPase HRas (Homo sapiens)
Assay: Ras wt fluorescent GTP loading blockade – biochemical, wildtype, multiplex bead flow cytometry, dose response (AID 1335)
Settings: bead-based flow cytometry, Bodipy-GTP binding to GST-Ras; at 100 µM (top of the series) unless noted
Checkbox rule: GTP binding, percent of control lower than 90% = label 1; GTP binding, percent of control not lower than 90% = label 0.

// known answers, use as guide
[
  {
    "molecule": "N#C/C(=C\\c1cccnc1)c1nc2ccccc2[nH]1",
    "class": "label 1"
  },
  {
    "molecule": "CCOC(=O)c1nc(Nc2ccc(C(=O)OC)cc2)c2ccccc2n1",
    "class": "label 0"
  },
  {
    "molecule": "CCOc1cc(/C=N/NC(=O)c2cc(-c3cccnc3)nc3ccccc23)ccc1O",
    "class": "label 1"
  }
]

Record COc1cccc(C(=O)O)c1OCc1ccccc1Br : is its GTP binding, percent of control strictly below 90%? label 0

Record Cc1cc(C)cc(C(=O)N(NC(=O)Nc2ccc(Cl)cc2)C(C)(C)C)c1 : is its GTP binding, percent of control strictly below 90%? label 0

Record Cc1cccc(C)c1CNc1ncccc1C(=O)O : is its GTP binding, percent of control strictly below 90%? label 0

Record COc1cc(N=c2oc3c(C)ncc(CO)c3cc2C(N)=O)cc(OC)c1OC : is its GTP binding, percent of control strictly below 90%? label 1

Record COc1cc2nc(/C=C/c3ccc(N(C)C)cc3)sc2cc1SC : is its GTP binding, percent of control strictly below 90%? label 0

Record Cc1cc(C)c(C)c(C(=O)c2ccccc2C(=O)O)c1C : is its GTP binding, percent of control strictly below 90%? label 0

Record CNC(=S)N=Nc1c(O)[nH]c2ccccc12 : is its GTP binding, percent of control strictly below 90%? label 1

Record COc1ccc(C2=Nn3c(nnc3-c3ccco3)SC2)cc1OC : is its GTP binding, percent of control strictly below 90%? label 0

Record COc1ccc2oc(COc3ccccc3)c(C(=O)O)c2c1 : is its GTP binding, percent of control strictly below 90%? label 1

Record Cc1cc(NCc2sc(C(=O)O)cc2C)ccc1Br : is its GTP binding, percent of control strictly below 90%? label 1

Record CCC(C)N1C(=O)/C(=C/c2c(NCCCOC(C)C)nc3c(C)cccn3c2=O)SC1=S (stereo not given) : is its GTP binding, percent of control strictly below 90%? label 0

Record CCn1c2ccccc2c2nc3cc(C(=O)O)ccc3nc21 : is its GTP binding, percent of control strictly below 90%? label 1

Record COc1ccc(O)c(-c2cc(C(F)(F)C(F)F)nc(-c3ccccc3)n2)c1 : is its GTP binding, percent of control strictly below 90%? label 0

Record COc1ccc2c3c(cccc13)C(=O)N(O)C2=O : is its GTP binding, percent of control strictly below 90%? label 1

Record CCCc1cc(NCc2ccccn2)n2c(nc3ccccc32)c1C#N : is its GTP binding, percent of control strictly below 90%? label 1

Record CC(C)NC(=S)N=Nc1c(O)[nH]c2ccc([N+](=O)[O-])cc12 : is its GTP binding, percent of control strictly below 90%? label 1

Record CCOC(=O)/C=C1\SCC(=O)N1CCOc1cccc(Br)c1 : is its GTP binding, percent of control strictly below 90%? label 0

Record COc1c(C)cccc1C(=O)NC(=S)Nc1ccc2c(c1)Cc1ccccc1-2 : is its GTP binding, percent of control strictly below 90%? label 0

Record N=c1oc2ccc3ccccc3c2cc1-c1nc(-c2ccccc2)cs1 : is its GTP binding, percent of control strictly below 90%? label 1

Record COc1cc([N+](=O)[O-])ccc1N=Nc1c(N)[nH]n(-c2ccccc2)c1=O : is its GTP binding, percent of control strictly below 90%? label 1
